Study system: NRAS Q61K (Homo sapiens, UniProt P01111+P62937, Q61K)
Sequence (P01111 whole entry Q61K, one chain of several): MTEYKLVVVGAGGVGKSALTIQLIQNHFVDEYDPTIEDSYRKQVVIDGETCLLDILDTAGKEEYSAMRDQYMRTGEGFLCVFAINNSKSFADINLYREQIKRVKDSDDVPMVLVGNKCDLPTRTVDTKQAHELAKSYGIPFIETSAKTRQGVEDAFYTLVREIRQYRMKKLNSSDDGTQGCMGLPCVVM
Assay info: Disruption of BRAF RBD interaction with Ras (FRET / MOA assay, with Cyclophilin A)
Type: biochemical
Test settings: NRAS Q61K; read-out: NRAS Q61K FRET data IC50
Excerpt: Disruption of B-Raf Ras-Binding Domain (BRAF^RBD) Interaction with K-Ras by Compounds of the Invention (Also Called a FRET Assay or an MOA Assay) Note—The following protocol describes a procedure for monitoring disruption of K-Ras G12C (GMP-PNP) binding to BRAF^RBD by a compound of the invention. This protocol may also be executed substituting other Ras proteins or nucleotides. […]
A collection of compounds and their measured IC50

Use these answered entries as a reference point.
>>> test_value("CCn1c(-c2cccnc2[C@H](C)OC)c2c3cc(ccc31)-c1csc(n1)C[C@H](NC(=O)[C@H](C(C)C)N(C)C(=O)N1CC[C@@H](O)C1)C(=O)N1CCC[C@H](N1)C(=O)OCC(C)(C)C2 (atropisomer, axis not shown) [Example A376]")
"10 to 100 nM"
>>> test_value("C=CC(=O)N(C)[C@H]1CN(C(=O)N(C)[C@H](C(=O)N[C@H]2Cc3nc(cs3)-c3ccc4c(c3)c(c(-c3cccnc3[C@H](C)OC)n4CC)CC(C)(C)COC(=O)C3CCCN(N3)C2=O)C(C)C)C[C@H]1F (stereo partly shown) [Example A631]")
"10 to 100 nM"

Query block: Find the measured IC50 of CCn1c(-c2cccnc2[C@H](C)OC)c2c3cc(ccc31)-c1cccc(c1)C[C@H](NC(=O)[C@H](C(C)C)N1CC[C@]3(CCN(C(=O)C#C[C@]4(N(C)C)CCOC4)C3)C1=O)C(=O)N1CCC[C@H](N1)C(=O)OCC(C)(C)C2 [Example A559] with NRAS Q61K (Homo sapiens, UniProt P01111+P62937, Q61K) as test system.
Result block: 1000 to 10000 nM

Query block: Find the measured IC50 of CCn1c(-c2cccnc2[C@H](C)OC)c2c3cc(ccc31)-c1csc(n1)C[C@H](NC(=O)[C@H](C(C)C)N(C)C(=O)N1CC(N(C)C3CC3)C1)C(=O)N1CCC[C@H](N1)C(=O)OCC(C)(C)C2 (atropisomer, axis not shown) [Example A285] with NRAS Q61K (Homo sapiens, UniProt P01111+P62937, Q61K) as test system.
Result block: 10 to 100 nM

* * *

Study system: NRAS Q61K (Homo sapiens, UniProt P01111+P62937, Q61K)
Assay info: Disruption of BRAF RBD interaction with Ras (FRET / MOA assay, with Cyclophilin A)
Format: biochemical
Test settings: NRAS Q61K; read-out: NRAS Q61K FRET data IC50
pIC50: −log10 of the molar value.
Parameter measured: pIC50

>>> test_value("CCn1c(-c2cccnc2[C@H](C)OC)c2c3cc(ccc31)-c1csc(n1)C[C@H](NC(=O)[C@H](C(C)C)N(C)C(=O)N1CCN(C(=O)CO)CC1)C(=O)N1CCC[C@H](N1)C(=O)OCC(C)(C)C2 (atropisomer, axis not shown)")
"7.00 to 8.00"
>>> test_value("CCn1c(-c2cccnc2[C@H](C)OC)c2c3cc(ccc31)-c1csc(n1)C[C@H](NC(=O)[C@H](C(C)C)N(C)C(=O)N1CCC3(CC1)CN(C)CCO3)C(=O)N1CCC[C@H](N1)C(=O)OCC(C)(C)C2")
"6.00 to 7.00"
>>> test_value("C=CC(=O)N1CC[C@H](C(=O)N(C)[C@H](C(=O)N[C@H]2Cc3cc(O)cc(c3)-c3ccc4c(c3)c(c(-c3cnccc3C)n4CC)CC(C)(C)COC(=O)[C@@H]3CCCN(N3)C2=O)C(C)C)C1")
"6.00 to 7.00"
>>> test_value("CCn1c(-c2cccnc2[C@H](C)OC)c2c3cc(ccc31)-c1cc(O)cc(c1)C[C@H](NC(=O)[C@H](C1CCCC1)N(C)C(=O)N1CCS(=O)(=NC)CC1)C(=O)N1CCC[C@H](N1)C(=O)OCC(C)(C)C2")
"6.00 to 7.00"
>>> test_value("CCn1c(-c2cccnc2[C@H](C)OC)c2c3cc(ccc31)N1CCO[C@@H](C[C@H](NC(=O)[C@H](C(C)C)N(C)C(=O)[C@@]3(F)CCN(C(=O)C#CC(C)(C)N4CCC4)C3)C(=O)N3CCC[C@H](N3)C(=O)OCC(C)(C)C2)C1")
"< 5.00"

Next item in the queue.
Query block: # return recorded pIC50 for entry CCn1c(-c2cccnc2[C@H](C)OC)c2c3cc(ccc31)-c1cccc(c1)C[C@H](NC(=O)[C@@H](COC1CN(C(=O)C#CC(C)(C)N(C)C(C)C)C1)C(C)C)C(=O)N1CCCC(N1)C(=O)OCC(C)(C)C2 (stereo partly shown)
Result block: < 5.00

* * *

A collection of compounds and their measured IC50
Study system: KRAS G13D (Homo sapiens, UniProt P01116+P62937, G13D)
Sequence (P01116 1-169 isoform P01116-2 G13D limits assumed): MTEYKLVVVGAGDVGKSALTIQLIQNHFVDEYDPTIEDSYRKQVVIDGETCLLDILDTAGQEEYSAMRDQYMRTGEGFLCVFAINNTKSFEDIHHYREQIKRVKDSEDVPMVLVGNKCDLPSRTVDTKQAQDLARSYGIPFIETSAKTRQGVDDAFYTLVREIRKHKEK
Sequence (P62937 whole entry): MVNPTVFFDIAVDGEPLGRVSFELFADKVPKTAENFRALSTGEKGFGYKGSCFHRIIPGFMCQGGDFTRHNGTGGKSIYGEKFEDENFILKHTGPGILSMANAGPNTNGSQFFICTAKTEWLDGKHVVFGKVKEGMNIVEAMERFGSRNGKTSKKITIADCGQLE
Assay info: Disruption of BRAF RBD interaction with Ras (FRET / MOA assay, with Cyclophilin A)
Type: biochemical
Test settings: KRAS G13D; read-out: KRAS G13D FRET data IC50

Use these answered entries as a reference point.
>>> test_value("CCn1c(-c2cccnc2[C@H](C)OC)c2c3cc(ccc31)-c1csc(n1)C[C@H](NC(=O)[C@H](C(C)C)N(C)C(=O)N1CCO[C@@H](C)C1)C(=O)N1CCC[C@H](N1)C(=O)OCC(C)(C)C2 (atropisomer, axis not shown)")
"0.1 to 1 µM"
>>> test_value("CCn1c(-c2cc(C3CCN(C)CC3)cnc2[C@H](C)OC)c2c3cc(ccc31)-c1cc(O)cc(c1)C[C@H](NC(=O)[C@H](C(C)C)N(C)C(=O)[C@@H]1OCC[C@@H]1c1ccccc1)C(=O)N1CCC[C@H](N1)C(=O)OCC(C)(C)C2 (atropisomer, axis not shown)")
"0.01 to 0.1 µM"
>>> test_value("CCn1c(-c2cccnc2[C@H](C)OC)c2c3cc(ccc31)-c1csc(n1)C[C@H](NC(=O)[C@H](C(C)C)N(C)C(=O)N1CC([C@@H](C)N(C)C)C1)C(=O)N1CCC[C@H](N1)C(=O)OCC(C)(C)C2 (atropisomer, axis not shown)")
"0.1 to 1 µM"

Query block: # return recorded IC50 for entry CCn1c(-c2cccnc2[C@H](C)OC)c2c3cc(ccc31)-c1csc(n1)C[C@H](NC(=O)[C@H](C(C)C)N(C)C(=O)N1CCOC[C@@H]1c1ccccc1)C(=O)N1CCC[C@H](N1)C(=O)OCC(C)(C)C2
Result block: 1 to 10 µM

Query block: # return recorded IC50 for entry CCn1c(-c2cccnc2[C@H](C)OC)c2c3cc(ccc31)-c1csc(n1)C[C@H](NC(=O)[C@H](C(C)C)N(C)C(=O)N1CC(N3CCCC3)C1)C(=O)N1CCC[C@H](N1)C(=O)OCC(C)(C)C2
Result block: 0.1 to 1 µM

Query block: # return recorded IC50 for entry CCn1c(-c2cccnc2[C@H](C)OC)c2c3cc(ccc31)-c1cc(O)cc(c1)C[C@H](NC(=O)[C@H](C(C)C)N(C)C(=O)[C@H]1CCN[C@H]1C)C(=O)N1CCC[C@H](N1)C(=O)OCC(C)(C)C2
Result block: 0.01 to 0.1 µM

* * *

A collection of compounds and their measured IC50
Study system: KRAS G13D (Homo sapiens, UniProt P01116+P62937, G13D)
Assay info: Disruption of BRAF RBD interaction with Ras (FRET / MOA assay, with Cyclophilin A)
Format: biochemical
Test settings: KRAS G13D; read-out: KRAS G13D FRET data IC50

Use these answered entries as a reference point.
>>> test_value("CCn1c(-c2cnccc2COC)c2c3cc(ccc31)-c1cc(O)cc(c1)C[C@H](NC(=O)[C@H](C(C)C)N(C)C(=O)[C@@H]1CCOC1)C(=O)N1CCC[C@H](N1)C(=O)OCC(C)(C)C2")
"100 to 1000 nM"
>>> test_value("CCn1c(-c2cnccc2COC)c2c3cc(ccc31)-c1cc(O)cc(c1)C[C@H](NC(=O)[C@H](C(C)C)N(C)C(=O)[C@H]1CCN(S(=O)(=O)N3CC(N)C3)C1)C(=O)N1CCC[C@H](N1)C(=O)OCC(C)(C)C2")
"100 to 1000 nM"
>>> test_value("CCn1c(-c2cc(N3CCN(C)CC3)cnc2[C@H](C)OC)c2c3cc(ccc31)-c1csc(n1)C[C@H](NC(=O)[C@H](C(C)C)N(C)C(=O)N(C)C)C(=O)N1CCC[C@H](N1)C(=O)OCC(C)(C)C2 (atropisomer, axis not shown)")
"10 to 100 nM"

Next item in the queue.
Query block: # return recorded IC50 for entry CCn1c(-c2cccnc2[C@H](C)OC)c2c3cc(ccc31)-c1cc(sn1)C[C@H](NC(=O)[C@H](C(C)C)N(C)C(=O)[C@@H]1CCN(C(=O)C#CCN3CCOCC3)C1)C(=O)N1CCC[C@H](N1)C(=O)OCC(C)(C)C2
Result block: > 10000 nM
